# System: Secretion of IL10 by TMD8 ABC-DLBCL cells
# test_summary: Human IL10 Mesoscale assay (TMD-8)
# Type: cell-based
# run_parameters: TMD8, 24 h, read-out: Human IL10 Mesoscale assay (TMD-8)
Listing of recorded IC50 by entry.
Your reply should be a number followed by the unit it is expressed in.

N#Cc1cc(NC(=O)c2cnn(-c3cccc4c3OCO4)c2C(F)(F)F)cnc1-n1nccn1 [Cpd 59]
0.048 µM
O=C(Nc1cnc(-n2nccn2)c(Cl)c1)c1cnn(-c2cccc(F)c2)c1C(F)(F)F [Cpd 20]
1 µM
Cc1cc(-n2ncc(C(=O)Nc3cnc(-n4nccn4)c(C#N)c3)c2C(F)(F)F)c(Cl)cn1 [Cpd 70]
3.55 µM

Find the measured IC50: item Cc1ccc(-n2ncc(C(=O)Nc3cnc(-n4nccn4)c(Cl)c3)c2C(F)(F)F)nc1 [Cpd 23] , target or system Secretion of IL10 by TMD8 ABC-DLBCL cells.
1.07 µM
